target: alpha-5-beta-1 integrin (Homo sapiens (Human), UniProt P05556+P08648); assay: alpha-5-beta-1 integrin cell adhesion assay (SW480 cells on human plasma fibronectin); assay type: cell-based; conditions: cell adhesion assay, SW480 cells, fibronectin-coated plates; Table 1
Sequence (P08648 42-894): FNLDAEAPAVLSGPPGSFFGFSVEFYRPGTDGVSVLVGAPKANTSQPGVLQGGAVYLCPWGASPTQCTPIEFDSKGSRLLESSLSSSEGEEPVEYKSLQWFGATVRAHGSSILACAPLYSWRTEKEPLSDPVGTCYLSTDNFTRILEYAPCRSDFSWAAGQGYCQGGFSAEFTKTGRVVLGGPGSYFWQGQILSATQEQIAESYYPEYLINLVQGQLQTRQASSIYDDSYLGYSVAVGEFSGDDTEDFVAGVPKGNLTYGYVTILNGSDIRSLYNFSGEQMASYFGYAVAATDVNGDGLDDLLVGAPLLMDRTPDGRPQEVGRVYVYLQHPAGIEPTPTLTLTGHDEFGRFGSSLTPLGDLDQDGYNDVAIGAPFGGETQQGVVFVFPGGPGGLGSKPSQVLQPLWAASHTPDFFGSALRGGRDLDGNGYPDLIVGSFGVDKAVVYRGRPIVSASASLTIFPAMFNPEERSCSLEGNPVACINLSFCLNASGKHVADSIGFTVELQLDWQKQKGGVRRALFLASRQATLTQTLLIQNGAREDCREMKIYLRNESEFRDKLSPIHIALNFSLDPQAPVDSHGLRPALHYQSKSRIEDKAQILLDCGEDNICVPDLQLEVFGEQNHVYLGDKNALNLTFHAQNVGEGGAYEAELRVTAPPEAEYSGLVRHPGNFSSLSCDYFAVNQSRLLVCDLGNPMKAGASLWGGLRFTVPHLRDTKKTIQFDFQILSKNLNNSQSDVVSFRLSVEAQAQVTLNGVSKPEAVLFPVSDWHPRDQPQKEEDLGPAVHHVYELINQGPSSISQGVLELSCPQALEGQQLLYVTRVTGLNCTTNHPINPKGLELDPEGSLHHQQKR
Sequence (P08648 895-1049 partner): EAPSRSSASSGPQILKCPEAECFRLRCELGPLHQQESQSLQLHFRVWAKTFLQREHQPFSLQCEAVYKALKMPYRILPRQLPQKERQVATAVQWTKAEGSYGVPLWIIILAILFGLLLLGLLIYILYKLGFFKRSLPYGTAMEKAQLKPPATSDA
Sequence (P05556 21-798): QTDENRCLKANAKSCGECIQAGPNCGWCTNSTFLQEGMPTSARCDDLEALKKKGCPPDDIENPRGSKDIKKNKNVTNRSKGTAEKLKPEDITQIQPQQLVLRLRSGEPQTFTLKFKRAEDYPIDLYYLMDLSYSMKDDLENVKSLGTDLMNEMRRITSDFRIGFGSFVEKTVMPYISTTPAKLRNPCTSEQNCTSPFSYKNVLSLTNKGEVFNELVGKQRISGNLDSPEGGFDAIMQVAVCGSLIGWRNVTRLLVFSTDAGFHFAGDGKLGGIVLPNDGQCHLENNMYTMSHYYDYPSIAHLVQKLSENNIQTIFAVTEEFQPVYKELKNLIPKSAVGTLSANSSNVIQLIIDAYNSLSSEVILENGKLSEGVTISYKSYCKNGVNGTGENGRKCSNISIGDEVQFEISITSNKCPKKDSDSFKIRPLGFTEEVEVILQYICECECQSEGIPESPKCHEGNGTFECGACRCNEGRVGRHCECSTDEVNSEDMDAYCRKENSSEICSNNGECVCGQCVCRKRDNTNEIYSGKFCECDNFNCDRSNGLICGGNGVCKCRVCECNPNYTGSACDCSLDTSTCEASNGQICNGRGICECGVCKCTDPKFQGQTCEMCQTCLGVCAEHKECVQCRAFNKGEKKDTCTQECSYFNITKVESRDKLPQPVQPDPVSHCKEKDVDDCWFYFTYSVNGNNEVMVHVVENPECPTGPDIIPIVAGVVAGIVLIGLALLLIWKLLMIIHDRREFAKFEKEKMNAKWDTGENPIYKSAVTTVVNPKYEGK
Provide the recorded IC50 for the entries that follow.

Summary: N=C(N)Nc1ccc2c(c1)C(NCC(=O)NC[C@H](NC(=O)c1c(Cl)cccc1Cl)C(=O)O)CCO2 (some centres unmarked) , alpha-5-beta-1 integrin (Homo sapiens (Human), UniProt P05556+P08648), IC50 = < 1000 nM

Summary: N#C/N=C(\N)Nc1cccc(C(=O)NCC(=O)NC[C@@H](NC(=O)c2c(Cl)cccc2Cl)C(=O)O)c1 , alpha-5-beta-1 integrin (Homo sapiens (Human), UniProt P05556+P08648), IC50 = < 10000 nM

Summary: COc1ccc(Nc2cccc(C(=O)NCC(=O)NC[C@H](NC(=O)c3c(Cl)cccc3Cl)C(=O)O)c2)nc1 , alpha-5-beta-1 integrin (Homo sapiens (Human), UniProt P05556+P08648), IC50 = < 50000 nM

Summary: Cc1cccc(Cl)c1C(=O)N[C@@H](CNC(=O)CNC(=O)c1cccc(NC(=N)N)c1)C(=O)O , alpha-5-beta-1 integrin (Homo sapiens (Human), UniProt P05556+P08648), IC50 = < 1000 nM

Summary: N=C(N)Nc1cccc(C(=O)NCC(=O)NC[C@H](NC(=O)c2c(Cl)cccc2Cl)C(=O)O)c1 , alpha-5-beta-1 integrin (Homo sapiens (Human), UniProt P05556+P08648), IC50 = < 100 nM

Summary: N#C/N=C(\N)Nc1cccc(C(=O)NCC(=O)NC[C@H](NC(=O)c2c(Cl)cccc2Cl)C(=O)O)c1 [drawing 107] , alpha-5-beta-1 integrin (Homo sapiens (Human), UniProt P05556+P08648), IC50 = < 100 nM

Summary: N#C/N=C(\N)Nc1cccc(C(=O)NCC(=O)NC[C@H](NC(=O)c2c(Cl)cccc2Cl)C(=O)O)c1 [drawing 110] , alpha-5-beta-1 integrin (Homo sapiens (Human), UniProt P05556+P08648), IC50 = < 1000 nM

Summary: O=C(CNC(=O)c1cccc(NC2=NCCCN2)c1)NC[C@H](NC(=O)c1c(Cl)cccc1Cl)C(=O)O , alpha-5-beta-1 integrin (Homo sapiens (Human), UniProt P05556+P08648), IC50 = < 100 nM

----------
Provide the recorded pIC50 for the entries that follow.
molecular target: alpha-5-beta-1 integrin (Homo sapiens (Human), UniProt P05556+P08648); experiment: alpha-5-beta-1 integrin cell adhesion assay (SW480 cells on human plasma fibronectin); assay type: cell-based; conditions: alpha-5-beta-1 integrin cell adhesion assay following Example 1; Table 2
pIC50: −log10 of the molar value.

Summary: C/N=C(\NC)Nc1cccc(C(=O)NCC(=O)NC[C@H](NC(=O)c2c(Cl)cc(-c3ccccc3)cc2Cl)C(=O)O)c1 , alpha-5-beta-1 integrin (Homo sapiens (Human), UniProt P05556+P08648), pIC50 = 6.00 to 7.00

Summary: O=C(CNC(=O)c1cccc(NC2=NCC(F)CN2)c1)NC[C@H](NC(=O)c1c(Cl)cc(-c2ccc3cn[nH]c3c2)cc1Cl)C(=O)O (stereo partly drawn) , alpha-5-beta-1 integrin (Homo sapiens (Human), UniProt P05556+P08648), pIC50 = > 7.00

Summary: O=C(CNC(=O)c1cccc(NC2=NCC(F)CN2)c1)NC[C@H](NC(=O)c1c(Cl)cc(N2CCS(=O)(=O)CC2)cc1Cl)C(=O)O (stereo partly drawn) , alpha-5-beta-1 integrin (Homo sapiens (Human), UniProt P05556+P08648), pIC50 = > 7.00
